- System: Staphylococcus aureus
- Protocol summary: Antibacterial activity against methicillin sensitive Staphylococcus aureus ATCC 29213 assessed as bacterial growth inhibition incubated for 18 to 24 hrs by broth microdilution method
- Type: functional
- Test context: time 18-24 hrs
Assay endpoint: MIC (µg/mL)
Reply with just the number (in µg/mL).

Consider the following illustrative entries.
{"Compound": "C[C@H]1COc2c(N3CCN(C)CC3)c(F)cc3c(=O)c(C(=O)O)cn1c23 [LEVOFLOXACIN ANHYDROUS]", "Recorded measurement": 0.125}
{"Compound": "C[C@@H](O)[C@H]1C(=O)N2C(C(=O)O)=C(S[C@@H]3CN[C@H](C(=O)N(C)C)C3)[C@H](C)[C@H]12 [MEROPENEM]", "Recorded measurement": 0.125}
{"Compound": "CCN1C(=O)[C@@]2(CN(C)C3(c4cc(Br)ccc4-n4c3nc3ccccc3c4=O)C2(C#N)C#N)c2ccccc21 (stereo not given in full)", "Recorded measurement": 0.125}
{"Compound": "CCN1C(=O)[C@@]2(CN(C)C3(c4cc(Cl)ccc4-n4c3nc3ccccc3c4=O)C2(C#N)C#N)c2ccccc21 (stereo not given in full)", "Recorded measurement": 0.25}

Now consider a different compound.
Record CCN1C(=O)[C@@]2(CN(C)C3(c4cc(OC)ccc4-n4c3nc3ccccc3c4=O)C2(C#N)C#N)c2ccccc21 (stereo not given in full) . Reported MIC: 0.5

Attribution: ChEMBL document CHEMBL5329147
